- Test system: Fibroblast
- assay details: Multiplex assay against human fibroblast
- Assay type: toxicity, cell-based
- condition notes: 24 h, 1 µM, compound concentration 1 uM, replicate 1
observed property: Population Fragmented Nuclei (%)

| molecule | u | test value |
| --- | --- | --- |
| COc1cc2ncn(-c3cc(OCc4ccccc4C(F)(F)F)c(C(N)=O)s3)c2cc1OC [GW843682X] | % | 27 |
| C=CC(=O)Nc1cccc(Oc2nc(Nc3ccc(N4CCN(C)CC4)cc3OC)ncc2Cl)c1 | % | 29 |
| CNC(=O)Nc1ccc2c(c1)[C@@]1(CC2)OC(=O)N(CC(=O)N(Cc2ccc(F)cc2)[C@@H](C)C(F)(F)F)C1=O | % | 23 |
| O=c1cc(N2CCOCC2)oc2c(-c3cccc4c3sc3ccccc34)cccc12 | % | 19 |

====

- Tested on: U2OS
- assay details: Multiplex assay against U2OS
- Format: toxicity, cell-based
- condition notes: human, 12 h, 10 µM, compound concentration 10 uM, replicate 1
Outcome label depends on Population Membrane Permeable-Phenotype (%) relative to 7%: at/above gives Y, below gives N.

| structure smiles string | label |
| --- | --- |
| O=c1[nH]c2ccccc2n1C1CCN(Cc2ccc(-c3[nH]c4cc5ncnc5cc4nc3-c3ccccc3)cc2)CC1 | Y |
| CNC(=O)Nc1ccc(-c2nc(N3CC4CCC(C3)O4)c3cnn(C4CCC5(CC4)OCCO5)c3n2)cc1 | Y |
| Cl.O=C(O)c1cc(-c2ccc(C3CCNCC3)cc2)c2ccc(-c3ccc(C(F)(F)F)cc3)cc2c1 | N |
| CC(C)(C)NC[C@H](O)COc1nsnc1N1CCOCC1 | N |
| CCCSc1nc(N[C@@H]2C[C@H]2c2ccc(F)c(F)c2)c2nnn([C@@H]3C[C@H](OCCO)[C@@H](O)[C@H]3O)c2n1 | Y |
| C[C@]12CC[C@@H]3c4ccc(O)cc4CC[C@H]3[C@@H]1CC[C@@H]2O | N |
| CCc1ccc(OCc2ccccc2C(=O)Nc2ccc3nc(C)cc(N)c3c2)cc1.Cl | Y |

====

- System: HEK-293T
- assay details: Multiplex assay against HEK293T
- Format: toxicity, cell-based
- condition notes: human, 24 h, 1 µM, compound concentration 1 uM, replicate 2
observed property: Population Healthy Nuclei (%)

| compound | u | test value |
| --- | --- | --- |
| COc1ccc(-c2ccc3ncc4c(c3c2)n(-c2ccc(N3CCNCC3)c(C(F)(F)F)c2)c(=O)n4C)cn1.O=C(O)/C=C\C(=O)O [BGT-226] | % | 9 |
| CC(C)OC(=O)N1CCC(Oc2ncnc3c2cnn3-c2ccc(S(C)(=O)=O)cc2F)CC1 | % | 62 |
| CN1CCN(Cc2ccc(Nc3ncc(Cl)c(Nc4ccccc4S(=O)(=O)N(C)C)n3)cc2)CC1 [DUBERMATINIB] | % | 69 |
| CC1=C(C(=O)Nc2cc3cn[nH]c3cc2F)C(c2ccc(C(F)(F)F)cc2)CC(=O)N1 (configuration not stated) | % | 63 |
| CCc1ccc(OCc2ccccc2C(=O)Nc2ccc3nc(C)cc(N)c3c2)cc1.Cl | % | 9 |
| CNC(=O)Nc1ccc2c(c1)[C@@]1(CC2)OC(=O)N(CC(=O)N(Cc2ccc(F)cc2)[C@@H](C)C(F)(F)F)C1=O [A-486] | % | 79 |
| CCCSc1nc(N[C@@H]2C[C@H]2c2ccc(F)c(F)c2)c2nnn([C@@H]3C[C@H](OCCO)[C@@H](O)[C@H]3O)c2n1 [TICAGRELOR] | % | 62 |

====

- Tested on: Fibroblast
- assay details: Multiplex assay against human fibroblast
- Format: toxicity, cell-based
- condition notes: 24 h, 10 µM, compound concentration 10 uM, replicate 1

| compound | Population Normal (%) |
| --- | --- |
| COC(=O)C1=C(C)NC(C)=C(C(=O)OCCCN2CCC(c3ccccc3)(c3ccccc3)CC2)[C@H]1c1cccc([N+](=O)[O-])c1 | 77 |
| Cc1ccccc1C(c1ccccc1C)N1C2CCC1CC(O)(c1ccccc1)C2 (stereo not drawn) | 91 |
| CC(C)Oc1ccccc1C(=O)Nc1ccccc1C(=O)Nc1cccc(S(=O)(=O)C(F)(F)F)c1 | 87 |
| CC(C)CC(=O)Nc1[nH]nc2c1CN(C(=O)C1CCN(C)CC1)C2(C)C | 88 |
| CCc1nn(CCCN2CCN(c3cccc(Cl)c3)CC2)c(=O)n1CCOc1ccccc1.Cl [NEFAZODONE HYDROCHLORIDE] | 77 |
| C=CC(=O)Nc1cccc(Oc2nc(Nc3ccc(N4CCN(C)CC4)cc3OC)ncc2Cl)c1 | 80 |
| C=CC(=O)Nc1cccc(Sc2nc(Nc3ccc(N4CCN(C)CC4)cc3)ncc2Cl)c1 | 82 |
| CCCSc1nc(N[C@@H]2C[C@H]2c2ccc(F)c(F)c2)c2nnn([C@@H]3C[C@H](OCCO)[C@@H](O)[C@H]3O)c2n1 | 83 |

====

- Test system: HEK-293T
- assay details: Multiplex assay against HEK293T
- Type: toxicity, cell-based
- condition notes: human, 48 h, 1 µM, compound concentration 1 uM, replicate 1
Outcome label depends on Population Membrane Permeable-Phenotype (%) relative to 2%: at/above gives T, below gives F.

| compound | label |
| --- | --- |
| Cc1c[nH]c2nccc(Oc3c(F)cc(Nc4cc(Cl)nc(N)n4)cc3F)c12 [BAY-549] | F |
| CC(C)c1noc(N2CCC(COc3ccc(-c4ccc(S(C)(=O)=O)cc4)nc3)CC2)n1 [GSK-1292263] | T |
| CC(C)(C)NC[C@H](O)COc1nsnc1N1CCOCC1 [TIMOLOL] | T |
| O=C(c1cc2c(cc1F)OC(c1ccc(F)cc1)(c1ccc(Cl)cc1Cl)O2)N1CCOCC1 (stereo not drawn) | F |
| COC(=O)C1=C(C)NC(C)=C(C(=O)OCCCN2CCC(c3ccccc3)(c3ccccc3)CC2)[C@H]1c1cccc([N+](=O)[O-])c1 [NIGULDIPINE] | F |
| COc1cc2ncn(-c3cc(OCc4ccccc4C(F)(F)F)c(C(N)=O)s3)c2cc1OC [GW843682X] | T |
| CC(C)NC(=O)N1CC[C@H](NC2=Nc3cc(F)ccc3N(CC(F)F)c3ccc(Cl)cc32)C1 | F |
| COc1ccccc1CN[C@H]1C2CCN(CC2)[C@H]1C(c1ccccc1)c1ccccc1 [CP-96345] | T |
| C[C@]12CC[C@@H]3c4ccc(O)cc4CC[C@H]3[C@@H]1CC[C@@H]2O [ESTRADIOL] | T |
| CC1=C(C(=O)Nc2cc3cn[nH]c3cc2F)C(c2ccc(C(F)(F)F)cc2)CC(=O)N1 (stereo not drawn) | T |
| CCCSc1nc(N[C@@H]2C[C@H]2c2ccc(F)c(F)c2)c2nnn([C@@H]3C[C@H](OCCO)[C@@H](O)[C@H]3O)c2n1 [TICAGRELOR] | T |

====

- Tested on: Fibroblast
- assay details: Multiplex assay against human fibroblast
- Format: toxicity, cell-based
- condition notes: 24 h, 10 µM, compound concentration 10 uM, replicate 1
observed property: Population Mitochondria Different-Phenotype (%)

| compound | assayed target | test value |
| --- | --- | --- |
| COC(=O)C1=C(C)NC(C)=C(C(=O)OCCCN2CCC(c3ccccc3)(c3ccccc3)CC2)[C@H]1c1cccc([N+](=O)[O-])c1 | Fibroblast | 27% |
| Cc1c[nH]c2nccc(Oc3c(F)cc(Nc4cc(Cl)nc(N)n4)cc3F)c12 | Fibroblast | 13% |
| CC(C)OC(=O)N1CCC(Oc2ncnc3c2cnn3-c2ccc(S(C)(=O)=O)cc2F)CC1 | Fibroblast | 16% |
| CNC(=O)Nc1ccc2c(c1)[C@@]1(CC2)OC(=O)N(CC(=O)N(Cc2ccc(F)cc2)[C@@H](C)C(F)(F)F)C1=O | Fibroblast | 1% |
| C=CC(=O)Nc1cccc(Oc2nc(Nc3ccc(N4CCN(C)CC4)cc3OC)ncc2Cl)c1 | Fibroblast | 4% |
| Cl.O=C(O)c1cc(-c2ccc(C3CCNCC3)cc2)c2ccc(-c3ccc(C(F)(F)F)cc3)cc2c1 | Fibroblast | 27% |
| O=C(c1cc2c(cc1F)OC(c1ccc(F)cc1)(c1ccc(Cl)cc1Cl)O2)N1CCOCC1 (configuration not stated) | Fibroblast | 81% |
| COc1cc2ncn(-c3cc(OCc4ccccc4C(F)(F)F)c(C(N)=O)s3)c2cc1OC [GW843682X] | Fibroblast | 32% |
| CNC(=O)Nc1ccc(-c2nc(N3CC4CCC(C3)O4)c3cnn(C4CCC5(CC4)OCCO5)c3n2)cc1 | Fibroblast | 37% |
| CC(C)c1noc(N2CCC(COc3ccc(-c4ccc(S(C)(=O)=O)cc4)nc3)CC2)n1 | Fibroblast | 4% |
| C=CC(=O)Nc1cccc(Sc2nc(Nc3ccc(N4CCN(C)CC4)cc3)ncc2Cl)c1 | Fibroblast | 5% |
| CCc1nn(CCCN2CCN(c3cccc(Cl)c3)CC2)c(=O)n1CCOc1ccccc1.Cl [NEFAZODONE HYDROCHLORIDE] | Fibroblast | 86% |
| O=c1cc(N2CCOCC2)oc2c(-c3cccc4c3sc3ccccc34)cccc12 | Fibroblast | 40% |
| Cc1nc(N2CC[C@H](O)C2)ncc1-c1cc(C(F)(F)F)cc2[nH]ncc12 | Fibroblast | 3% |
| Cc1cccc(CN2CCN(C(c3ccccc3)c3ccc(Cl)cc3)CC2)c1.Cl.Cl (configuration not stated) | Fibroblast | 40% |
| O=c1[nH]c2ccccc2n1C1CCN(Cc2ccc(-c3[nH]c4cc5ncnc5cc4nc3-c3ccccc3)cc2)CC1 | Fibroblast | 14% |
| CC(C)NC(=O)N1CC[C@H](NC2=Nc3cc(F)ccc3N(CC(F)F)c3ccc(Cl)cc32)C1 | Fibroblast | 46% |
